# method notes: small-molecule microarray binders of probe aNog, primary screen, biochemical, biotinylated probe, 635/667 nm fluorescence (AID 1115);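 note: probe is biotinylated aNog protein used at 0.15 µg/mL for 1 h at 4 C; z-score combines 667 nm fluorescence of each spot with its signal to noise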
# measurement conditions: higher = more signal
Use rule met when the recorded composite z-score is no lower than 0.2; use rule not met when it is lower.

compound: C[C@H]1C2[C@H](Cc3ccccc3)NC(=O)[C@]23C(=O)N[C@H](Cc2ccccc2)C(=O)N[C@@H](Cc2ccccc2)C(=O)NC/C=C\C/C=C/C3[C@@H]2O[C@]12C (stereo partly drawn)
label: rule met

compound: C=C[C@H](OC)[C@@H](OC(=O)Nc1ccc(SC)cc1)c1ccc(OC)c(O)c1
label: rule not met

compound: COC(=O)[C@@]1(Cc2ccccc2)[C@H]2c3cc(C(=O)N4CCCC4)n(CCN4CNCC4=O)c3C[C@H]2CN1C(=O)c1ccccc1
label: rule not met

compound: Cc1ccc(S[C@]2(C(=O)O)CC(=O)N(Cc3cc(C(F)(F)F)cc(C(F)(F)F)c3)[C@@H]2c2ccc(CO)cc2I)cc1
label: rule not met

Please turn your attention to the following entry.
IN: In plain terms: is recorded composite z-score at least 0.2 for `C[N+](C)(C)CCCCNC(=O)[C@H]1C[C@H]2C(=O)NCC(=O)N2[C@H]1c1cccc(OCCO)c1` ?
OUT: rule not met

---

# method notes: inhibitors of hydroxyurea-induced Chk1 phosphorylation, primary screen, imaging, HeLa, phospho-Chk1 antibody, percent positive cells (AID 1186)
# measurement conditions: hydroxyurea-induced phospho-Chk1 immunofluorescence imaging, higher = more signal
assay readout: z-score
Answers are plain numbers.

Please review the entries below; each comes with its answer.
molecule: CO[C@H]1O[C@H](CO)[C@@H](OC(=O)CCc2ccccc2)[C@@H]2OC(=O)[C@H](Cc3cccc(Br)c3)C/C=C/C[C@@H](Cc3cccc(Br)c3)C(=O)O[C@@H]12
assay readout: z-score
measurement: -0.962

molecule: O=C1O[C@H](c2ccccc2)[C@H](c2ccccc2)N2[C@H]1[C@@H](C(=O)NC[C@H](O)c1ccccc1)[C@]1(C(=O)Nc3ccc(C#CC4(O)CCCCCC4)cc31)[C@H]2c1ccc(OCCO)cc1
assay readout: z-score
measurement: -0.309

molecule: O=C/C=C/c1ccc(/C=C/c2ccccc2)cc1
assay readout: z-score
measurement: 0.144

molecule: C[C@H]1C2[C@H](Cc3ccccc3)NC(=O)[C@]23C(=O)N[C@H](Cc2ccccc2)C(=O)N[C@@H](Cc2ccccc2)C(=O)NC/C=C\C/C=C/C3[C@@H]2O[C@]12C (some centres not stated)
assay readout: z-score
measurement: 0.531

molecule: O=C1OCCC/C=C\[C@H]2OC34C=CCN(CCN5CCOCC5)C(=O)[C@H]3N(CCCCCO)C(=O)[C@@H]4C12 (some centres not stated)
assay readout: z-score
measurement: 0.564

Please go through the list and note z-score for each molecule.
1. Cc1ccc(N2C(=O)c3ccccc3[C@@H](C(=O)NCc3ccccc3)[C@@H]2c2ccc(CO)cc2)nc1
2. O=C1C2C=CC(C(O)C#Cc3ccccc3)N(Nc3ccccc3)C2C(=O)N1c1ccccc1 (configuration not stated)

OUT:
1: -0.639; 2: -0.0484

---

For each record, write down the corresponding composite z-score.
# Test system: Chordin-like protein 2 (CHRDL2)
# method notes: CHRDL2 small-molecule binders, primary screen, biochemical, small-molecule microarray, 635 nm fluorescence (AID 1126);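 note: printed compound slides probed with Chrdl2 protein at 4 µg/mL for 1 h at 4 C; score merges 667 nm emission intensity with signal to noise over three replicate slides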
# measurement conditions: small-molecule microarray binding, fluorescence 635 nm; higher = more signal
Give bare numbers.

Please review the entries below; each comes with its answer.
molecule: O=C(CS)NCCCCCNC(=O)[C@H]1C[C@H]2C(=O)N[C@@H](Cc3ccccc3)C(=O)N2[C@H]1c1ccc(O)cc1
target desc: Chordin-like protein 2 (CHRDL2)
assay readout: composite z-score
measurement: 0.905
//
molecule: CO[C@H]1COC(=O)CC=C[C@H](C)[C@@H](OC)COC(=O)[C@H](Cc2ccccc2)NC(=O)CC=C[C@@H]1C
target desc: Chordin-like protein 2 (CHRDL2)
assay readout: composite z-score
measurement: 1.46
//
molecule: CO[C@H]1O[C@H](CO)[C@@H](OC(=O)CCc2ccccc2)[C@@H]2OC(=O)[C@H](Cc3cccc(Br)c3)C/C=C/C[C@@H](Cc3cccc(Br)c3)C(=O)O[C@@H]12
target desc: Chordin-like protein 2 (CHRDL2)
assay readout: composite z-score
measurement: -1.41

Please go through the list and note composite z-score for each molecule.
1. CC(C)C[C@@H]1NC(=O)[C@H]2C[C@@H](C(=O)NCCCCCC[N+](C)(C)C)[C@@H](c3ccc(O)cc3)N2C1=O
2. O=C1OCCC/C=C\[C@H]2OC34C=CCN(CCN5CCOCC5)C(=O)[C@H]3N(CCCCCO)C(=O)[C@@H]4C12 (some centres not stated)
3. C=C(COC)C(=O)CC[C@H](OC(=O)c1ccccc1-c1ccccc1C(=O)O)c1cccc(OCCO)c1
4. CCOC(=O)C[C@H]1[C@H](OC(=O)Cc2ccc3c(c2)OCO3)[C@@H](NC(=O)c2ccc3ccccc3c2)c2cc(OCCCO)ccc2N1C(=O)Cc1ccc(OC)cc1

OUT:
1. 0.362
2. -1.15
3. 1.43
4. 0.472
